The measurements presented in this section are drawn from patent US5541163A.

- ASSAYED TARGET: human renin (Homo sapiens)
- Construct: A human plasma pool is used as the source of both the substrate (angiotensinogen) and the enzyme (renin)
- Sequence (P00797 67-406): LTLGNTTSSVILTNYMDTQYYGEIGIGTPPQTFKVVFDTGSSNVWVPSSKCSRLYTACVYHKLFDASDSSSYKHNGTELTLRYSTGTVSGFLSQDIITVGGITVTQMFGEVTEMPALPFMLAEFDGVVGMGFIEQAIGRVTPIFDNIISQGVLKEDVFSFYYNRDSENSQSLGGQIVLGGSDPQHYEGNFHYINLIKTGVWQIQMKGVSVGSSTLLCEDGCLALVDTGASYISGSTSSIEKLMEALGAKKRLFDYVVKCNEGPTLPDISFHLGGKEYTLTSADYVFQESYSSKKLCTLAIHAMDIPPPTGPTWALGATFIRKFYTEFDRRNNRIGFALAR
- ASSAY METHOD TEXT: Plasma renin assay (inhibition of human renin, angiotensin I by RIA)
- DETAILS: human plasma pool, pH 6.0, 2 h incubation at 37°
Labelling: IC50 reported below 60 nM becomes 1.0; at or above becomes 0.0.

Is it true that IC50 reported for CC(C)C[C@H](O)[C@H](O)[C@H](CC1CCCCC1)NC(=O)[C@@H](CC(=O)N(CC(=O)N(C)CCc1ccncc1)Cc1ccccc1)CC1CC1 is less than 60 nM?
0.0

Moving on to CC(C)C[C@H](O)[C@H](O)[C@H](CC1CCCCC1)NC(=O)[C@@H](CC(=O)N(CC(=O)N(C)C)Cc1ccccc1)CC1CC1
1.0

Next compound up: CC(C)C[C@H](O)[C@H](O)[C@H](CC1CCCCC1)NC(=O)[C@@H](CC(=O)N(CC(=O)N1CCOCC1)CC1CCCCC1)Cc1nccs1
1.0

Next: Cc1cc(C)cc(CN(CC(=O)N(C)C)C(=O)C[C@@H](Cc2csc(N)n2)C(=O)N[C@@H](CC2CCCCC2)[C@@H](O)[C@@H](O)CC(C)C)c1
1.0

Can you check C[C@@H](c1ccccc1)N(CC(=O)N(C)C)C(=O)C[C@@H](CC1CC1)C(=O)N[C@@H](CC1CCCCC1)[C@@H](O)[C@@H]1CC(C)(C)N(C)C1=O next?
1.0

Field entry: CC(C)C[C@H](O)[C@H](O)[C@H](CC1CCCCC1)NC(=O)[C@@H](CC(=O)N(CC(=O)N(C)C)[C@@H](C)c1cccc2ccccc12)CC1CC1
0.0

Query CC(C)C[C@H](O)[C@H](O)[C@H](CC1CCCCC1)NC(=O)[C@@H](CC(=O)N(CC(=O)N(C)CCc1ccccn1)CC1CCCCC1)Cc1cccnc1 next
1.0

// same read-out, input: COCOC1CCN(C(=O)CN(CC2CCCCC2)C(=O)C[C@@H](Cc2csc(N)n2)C(=O)N[C@@H](CC2CCCCC2)[C@@H](O)[C@@H](O)CC(C)C)CC1
1.0

Next compound: CC(C)C[C@H](O)[C@H](O)[C@H](CC1CCCCC1)NC(=O)[C@@H](CC(=O)N(CC(=O)N(C)CCN1CCOCC1)[C@@H](C)c1ccccc1)Cc1csc(N)n1
1.0

Now this one: CC(C)C[C@H](O)[C@H](O)[C@H](CC1CCCCC1)NC(=O)[C@@H](CC(=O)N(CC(=O)N(C)CCc1ccccn1)CC1CCCC1)Cc1csc(N)n1
1.0
